- experimental target: GTPase KRas [1-37] (Homo sapiens, UniProt G3V5T7)
- Construct: 1-37
- Sequence (G3V5T7 whole entry): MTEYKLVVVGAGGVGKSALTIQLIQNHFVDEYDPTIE
- test name: inhibitors of GTP binding to wildtype Ras, dose response, biochemical, multiplex bead flow cytometry (AID 1335)
Just so you know, the groups by EC50 go like this: low end: < 3 µM; middle: ≥ 3 µM and < 8 µM; high end: ≥ 8 µM

Some solved entries appear below for comparison.
Cc1cc(NC(=O)CSc2nc(O)c(C#N)c(-c3ccccc3)n2)no1: high end
Cc1ccc(-n2c(=O)cc(N3CCc4ccccc4C3)[nH]c2=O)cc1: high end

Q: Hello team, could you let me know which band the following compound falls into: CCN1C(c2ccccc2)=C(c2ccccc2)S/C1=C/C=C1\SC(=S)N(C)C1=O
Result: high end

Q: Which category does the recorded EC50 put O=C(O)c1ccccc1OCc1ccccc1Br in?
Result: low end

Q: Please report the category associated with Cc1cc(C(=O)O)sc1CNCc1ccccc1Cl , nothing else.
Result: low end

Q: Hello team, could you let me know which band the following compound falls into: Cc1cc(C(=O)Oc2ccccc2C(=O)O)c(C)o1
Result: middle

Q: Each compound maps to one class by EC50. Which class for CC1(C)Cc2c(sc(NC(=S)NC(=O)c3ccccc3)c2C(=O)O)CO1 ?
Result: low end

Q: Assign a category based on measured EC50 for CCS(=O)(=O)N1N=C(c2cccc(NS(C)(=O)=O)c2)CC1c1ccc(C)cc1 (stereo not given) and give only the class name.
Result: low end

Q: Lab note: sort O=C(O)/C=C/c1cn(Cc2ccccc2)nc1-c1cccs1 into the matching EC50 band.
Result: middle
